- TEST DESCRIPTION: Pharmacokinetics in rats
- Format: in vivo
- TEST CONDITIONS: rat, plasma, oral; male SD rats, p.o. 10 mg/kg vs i.v. 2 mg/kg
MEASURE: bioavailability

In plain terms, N#CN1C[C@H](n2nc(-c3ccc(Oc4ccc(Cl)cn4)cc3)c(C(N)=O)c2N)CCC12CC2 has a documented bioavailability of > 40%

###

- SUBJECT OF TEST: Recombinant Btk (Homo sapiens)
- Sequence (Q06187 whole entry): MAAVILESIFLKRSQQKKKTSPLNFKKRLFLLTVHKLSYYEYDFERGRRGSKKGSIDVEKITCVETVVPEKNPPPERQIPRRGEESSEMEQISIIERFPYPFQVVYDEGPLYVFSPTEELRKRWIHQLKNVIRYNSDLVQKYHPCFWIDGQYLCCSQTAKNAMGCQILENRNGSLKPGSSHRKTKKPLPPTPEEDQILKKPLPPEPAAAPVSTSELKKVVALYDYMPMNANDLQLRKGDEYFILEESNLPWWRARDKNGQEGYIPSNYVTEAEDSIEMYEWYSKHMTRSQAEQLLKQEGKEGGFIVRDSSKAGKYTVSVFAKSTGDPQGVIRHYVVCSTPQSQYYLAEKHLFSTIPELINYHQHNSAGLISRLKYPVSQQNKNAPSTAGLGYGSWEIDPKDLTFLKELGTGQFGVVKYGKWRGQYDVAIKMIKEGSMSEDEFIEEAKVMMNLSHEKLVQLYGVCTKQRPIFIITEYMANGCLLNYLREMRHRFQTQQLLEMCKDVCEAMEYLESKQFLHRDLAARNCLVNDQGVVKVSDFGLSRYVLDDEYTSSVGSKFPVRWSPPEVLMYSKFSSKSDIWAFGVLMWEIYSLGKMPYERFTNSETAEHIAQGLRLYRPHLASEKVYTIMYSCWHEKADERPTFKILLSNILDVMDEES
- TEST DESCRIPTION: Kinase activity (BTK) inhibition assay, TR-FRET
- TEST CONDITIONS: read-out: IC50, inhibitory effect on BTK kinase activity
pIC50: −log10 of the molar value.
MEASURE: pIC50

The reported pIC50 of the molecule N#CN1C[C@H](n2nc(-c3ccc(Oc4ccc(Cl)cn4)cc3)c(C(N)=O)c2N)CCC12CC2 was > 7.00
